Molecular target: mouse Tas2r105 (Mus musculus)
Construct: expressed in transfected cells; host or cells: HEK293T-Gα16gust44
Sequence (Q9JKT4 1-300): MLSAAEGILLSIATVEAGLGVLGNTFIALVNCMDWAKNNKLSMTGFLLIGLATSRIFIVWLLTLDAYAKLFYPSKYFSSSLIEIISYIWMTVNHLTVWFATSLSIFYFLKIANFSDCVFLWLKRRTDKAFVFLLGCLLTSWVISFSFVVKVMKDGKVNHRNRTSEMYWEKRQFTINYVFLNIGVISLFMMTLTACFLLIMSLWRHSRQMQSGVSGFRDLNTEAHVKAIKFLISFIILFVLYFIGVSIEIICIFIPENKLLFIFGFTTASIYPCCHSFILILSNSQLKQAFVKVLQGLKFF
Assay: Calcium imaging assay (FLIPR), HEK293T-Gα16gust44 cells transfected with mouse Tas2r105
Format: cell-based
Details: Time 2 s
Recorded RLU by entry
Be sure to follow the number with its unit.

1) C[C@H](CCC(=O)O)[C@H]1CC[C@H]2[C@@H]3[C@H](O)C[C@@H]4C[C@H](O)CC[C@]4(C)[C@H]3C[C@H](O)[C@]12C 1.777 RLU
2) C[C@H](CCC(=O)NCC(=O)O)[C@H]1CC[C@H]2[C@@H]3[C@H](O)C[C@@H]4C[C@H](O)CC[C@]4(C)[C@H]3C[C@H](O)[C@]12C -27.0595 RLU
3) C[C@H](CCC(=O)O)[C@H]1CC[C@H]2[C@@H]3CC[C@@H]4C[C@H](O)CC[C@]4(C)[C@H]3C[C@H](O)[C@]12C -7.941 RLU

Q: Find the recorded RLU belonging to C[C@H](CCC(=O)O)[C@H]1CC[C@H]2[C@@H]3CC[C@@H]4C[C@H](O)CC[C@]4(C)[C@H]3CC[C@]12C and report it.
Result: -19.9183 RLU
